meta.source: patent US7214707B2

# method_notes: Rat lung retention after intra-tracheal dosing (long duration of action)
# conditions: in vivo, 0.4 mg/kg, (lung) ng/g
Structures can show the parent of a compound that is named as a salt.
property: concentration at 48 h (ng/g)
Quick reminder: number only, in ng/g, skip the unit.

Request: If you can, please state the reported concentration at 48 h value of CC(=O)N[C@H]1[C@H]([C@H](OC(=O)Nc2ccc(Cc3ccc(NC(=O)O[C@@H]([C@@H]4OC(C(=O)O)=C[C@H](NC(=N)N)[C@H]4NC(C)=O)[C@H](O)CO)cc3)cc2)[C@H](O)CO)OC(C(=O)O)=C[C@@H]1NC(=N)N [Example 8, bis TFA Salt] .
Response: 3800

###

# maps each entry to its EC50
# Tested on: A/New Caledonia/20/99 BVLV008 (H1N1)
# method_notes: Plaque reduction assay (PRA) in MDCK cells
# Type: cell-based
# conditions: Influenza A virus, reduces plaque numbers by 50%, MDCK cells, read-out: EC50 PRA A/New
Where a name gives a salt, the structure may show the parent alone.
Quick reminder: number only, in ng/mL, skip the unit.

CC(=O)N[C@H]1[C@H]([C@H](OC(=O)NCc2ccc(-c3ccc(CNC(=O)O[C@@H]([C@@H]4OC(C(=O)O)=C[C@H](NC(=N)N)[C@H]4NC(C)=O)[C@H](O)CO)cc3)cc2)[C@H](O)CO)OC(C(=O)O)=C[C@@H]1NC(=N)N [Example 9, bis TFA Salt]: 0.003
CC(=O)N[C@H]1[C@H]([C@H](OC(=O)Nc2ccc(Cc3ccc(NC(=O)O[C@@H]([C@@H]4OC(C(=O)O)=C[C@H](NC(=N)N)[C@H]4NC(C)=O)[C@H](O)CO)cc3)cc2)[C@H](O)CO)OC(C(=O)O)=C[C@@H]1NC(=N)N [Example 8, bis TFA Salt]: 0.0001

Request: If you can, please state the reported EC50 value of NC12CC3CC(CC(C3)C1)C2 [Amantadine] .
Response: 11

Request: What do you have for CCOC(=O)C1=C[C@@H](OC(CC)CC)[C@H](NC(C)=O)[C@@H](N)C1 [Oseltamivir] ?
Response: 0.23

###

# maps each entry to its concentration at 48 h
# method_notes: Rat lung retention after intra-tracheal dosing (long duration of action)
# conditions: in vivo, 0.1 mg/kg, Mean (cmpd) ng/g
Where a name gives a salt, the structure may show the parent alone.
Quick reminder: number only, in ng/g, skip the unit.

CC(=O)N[C@H]1[C@H]([C@H](OC(=O)NCc2ccc(-c3ccc(CNC(=O)O[C@@H]([C@@H]4OC(C(=O)O)=C[C@H](NC(=N)N)[C@H]4NC(C)=O)[C@H](O)CO)cc3)cc2)[C@H](O)CO)OC(C(=O)O)=C[C@@H]1NC(=N)N [Example 9, bis TFA Salt]: 1400

Moving on to another compound below.
Request: If you can, please state the reported concentration at 48 h value of CC(=O)N[C@H]1[C@H]([C@H](OC(=O)NCCc2ccc(CCNC(=O)O[C@@H]([C@@H]3OC(C(=O)O)=C[C@H](NC(=N)N)[C@H]3NC(C)=O)[C@H](O)CO)cc2)[C@H](O)CO)OC(C(=O)O)=C[C@@H]1NC(=N)N [Example 2] .
Response: 603

###

# method_notes: Rat lung retention after intra-tracheal dosing (long duration of action)
# conditions: in vivo, 0.4 mg/kg, (lung) ng/g
Structures can show the parent of a compound that is named as a salt.
property: concentration at 168 h (ng/g)
Quick reminder: number only, in ng/g, skip the unit.

Request: If you can, please state the reported concentration at 168 h value of CC(=O)N[C@H]1[C@H]([C@H](OC(=O)Nc2ccc(Cc3ccc(NC(=O)O[C@@H]([C@@H]4OC(C(=O)O)=C[C@H](NC(=N)N)[C@H]4NC(C)=O)[C@H](O)CO)cc3)cc2)[C@H](O)CO)OC(C(=O)O)=C[C@@H]1NC(=N)N [Example 8, bis TFA Salt] .
Response: 3230
